measurement-target: T1, purified interference factor(s), Donor B
T1 construct: also called interference in serum from Donor B
experimental-details: SPR, interference factor immobilized
measured-metric: % of binding of reference (=100%)
Give the quantity in %, number only.

Worked cases, % of binding of reference (=100%) given:
# binder, unit-of-measurement, % of binding of reference (=100%)
records = [
    ("SEQ ID NO: 68 (VHH, Ex. 8) VHH: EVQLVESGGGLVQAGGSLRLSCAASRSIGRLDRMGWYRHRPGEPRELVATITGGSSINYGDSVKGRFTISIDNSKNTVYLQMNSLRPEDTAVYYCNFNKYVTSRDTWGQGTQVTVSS", "%", 115),
    ("SEQ ID NO: 88 (VHH, Ex. 8; L11S, T110Q) VHH: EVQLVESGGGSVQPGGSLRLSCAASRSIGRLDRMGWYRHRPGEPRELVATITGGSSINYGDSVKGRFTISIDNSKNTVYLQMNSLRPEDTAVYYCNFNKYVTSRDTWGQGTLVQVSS", "%", 5),
    ("SEQ ID NO: 79 (VHH, Ex. 8) VHH: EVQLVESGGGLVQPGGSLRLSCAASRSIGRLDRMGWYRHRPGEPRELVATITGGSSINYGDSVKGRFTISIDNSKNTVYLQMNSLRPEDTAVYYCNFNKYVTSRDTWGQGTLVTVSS", "%", 17),
    ("SEQ ID NO: 42 (VHH, Ex. 8) EVQLVESGGGLVQPGGSLRLSCAASGRTFSYNPMGWFRQAPGKGRELVAAISRTGGSTYYPDSVEGRFTISRDNAKRMVYLQMNSLRAEDTAVYYCAAAGVRAEDGRVRTLPSEYTFWGQGTQVTVSSAAAEVQLVESGGGLVQPGGSLRLSCAASGRTFSYNPMGWFRQAPGKGRELVAAISRTGGSTYYPDSVEGRFTISRDNAKRMVYLQMNSLRAEDTAVYYCAAAGVRAEDGRVRTLPSEYTFWGQGTQVTVSSA", "%", 4),
]

// returns reported % of binding of reference (=100%) for input SEQ ID NO: 80 (VHH, Ex. 8) VHH: EVQLVESGGGLVQPGGSLRLSCAASRSIGRLDRMGWYRHRPGEPRELVATITGGSSINYGDSVKGRFTISIDNSKNTVYLQMNSLRPEDTAVYYCNFNKYVTSRDTWGQGTLVQVGG
5

Lookup SEQ ID NO: 66 (VHH, Ex. 8) VHH: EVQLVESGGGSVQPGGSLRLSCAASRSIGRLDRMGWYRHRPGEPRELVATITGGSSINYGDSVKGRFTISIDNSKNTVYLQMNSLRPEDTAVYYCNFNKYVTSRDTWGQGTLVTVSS
29

Please answer likewise for SEQ ID NO: 82 (VHH, Ex. 8) VHH: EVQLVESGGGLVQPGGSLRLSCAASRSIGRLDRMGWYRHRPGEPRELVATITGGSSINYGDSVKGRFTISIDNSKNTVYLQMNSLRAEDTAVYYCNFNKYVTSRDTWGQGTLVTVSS
80

// data source = patent US20200216532A1
